The reported measurements were obtained from the supplement of paper PMC9942566.

test system: Serratia marcescens K904 PosmB-luxCDABE reporter (pMQ747); assay: PosmB-lux reporter fold induction (RLU/OD600 relative to no-compound control), highest over Biolog concentrations; higher = stronger Rcs reporter activation; settings: wild type K904; 4 h
Assign 1 (yes) to entries whose PosmB-lux reporter fold induction meets or exceeds 2; assign 0 (no) to the rest.

molecule	class-label
N[C@H](CO)C(=O)O [D-serine] (Biolog plate: PM17, well positions: A2-4)	1 (yes)
COc1cc(Cc2cnc(N)nc2N)cc(OC)c1OC [trimethoprim] (Biolog plate: PM16, well positions: B9-12)	0 (no)
CCCCCCCCCCCC[N+](C)(C)CCCS(=O)(=O)[O-] [lauryl sulfobetaine] (Biolog plate: PM19, well positions: G1-4)	1 (yes)
CS(=O)(=O)c1ccc([C@@H](O)[C@@H](CO)NC(=O)C(Cl)Cl)cc1 [thiamphenicol] (Biolog plate: PM18, well positions: A9-12)	0 (no)
NC[C@@H]1O[C@H](O[C@H]2[C@@H](O)[C@H](O[C@@H]3[C@@H](O)[C@H](N)C[C@H](N)[C@H]3O[C@H]3O[C@H](CN)[C@@H](O)[C@H](O)[C@H]3N)O[C@@H]2CO)[C@H](N)[C@@H](O)[C@@H]1O [Neomycin] (Biolog plate: PM11, well positions: F9-12)	0 (no)
CO[C@@H]1[C@@H](O[C@@H]2O[C@H](C)[C@@H](O[C@H]3C[C@@](C)(O)[C@@H](OC(=O)CC(C)C)[C@H](C)O3)[C@H](N(C)C)[C@H]2O)[C@@H](CC=O)C[C@@H](C)[C@@H](O)/C=C/C=C/C[C@@H](C)OC(=O)C[C@H]1OC(C)=O [josamycin] (Biolog plate: PM19, well positions: A2-4)	0 (no)
CCOc1ccc2ccccc2c1C(=O)N[C@@H]1C(=O)N2[C@@H]1SC(C)(C)[C@@H]2C(=O)O [Nafcillin] (Biolog plate: PM11, well positions: D9-12)	1 (yes)
O=[N+]([O-])c1ccc(-[n+]2nc(-c3ccccc3)nn2-c2ccc(I)cc2)cc1 [iodonitro tetrazolium violet] (Biolog plate: PM19, well positions: D5-8)	0 (no)
CO[C@H]1/C=C/O[C@@]2(C)Oc3c(C)c(O)c4c(O)c(c(/C=N/N5CCN(C)CC5)c(O)c4c3C2=O)NC(=O)/C(C)=C\C=C\[C@H](C)[C@H](O)[C@@H](C)[C@@H](O)[C@@H](C)[C@H](OC(C)=O)[C@@H]1C [Rifampicin] (Biolog plate: PM12, well positions: H5-8)	1 (yes)
[Cl][Mn][Cl] [Manganese chloride] (Biolog plate: PM13, well positions: G5-8)	0 (no)

====

test system: Serratia marcescens K904 PosmB-luxCDABE reporter (pMQ747); experiment: PosmB-lux reporter fold induction (RLU/OD600 relative to no-compound control), highest over Biolog concentrations; higher = stronger Rcs reporter activation; details: wild type K904; 4 h
Entries annotated with measured PosmB-lux reporter fold induction

compound	PosmB-lux reporter fold induction
S=c1nc[nH]c2nc[nH]c12 [6-Mercapto-purine] (Biolog plate: PM13, well positions: C1-4)	1.6
CC(CN1c2ccccc2Sc2ccccc21)N(C)C (stereo unspecified) [Promethazine] (Biolog plate: PM14, well positions: H5-8)	4.68
[Cl][Cu][Cl] [Cupric chloride] (Biolog plate: PM13, well positions: H1-4)	1.13
CN[C@H](CC(C)C)C(=O)N[C@H]1C(=O)N[C@@H](CC(N)=O)C(=O)N[C@H]2C(=O)N[C@H]3C(=O)N[C@H](C(=O)N[C@H](C(=O)O)c4cc(O)cc(O)c4-c4cc3ccc4O)[C@H](O)c3ccc(c(Cl)c3)Oc3cc2cc(c3O[C@@H]2O[C@H](CO)[C@@H](O)[C@H](O)[C@H]2O[C@H]2C[C@](C)(N)[C@H](O)[C@H](C)O2)Oc2ccc(cc2Cl)[C@H]1O [Vancomycin] (Biolog plate: PM12, well positions: C5-8)	5.39
Nc1ccn(C2OC(CO)C(O)C2O)c(=O)n1 [Cytosine-1-beta-D-arabino-furanoside] (Biolog plate: PM13, well positions: E1-4)	1.5
On1ccccc1=S [1-Hydroxy-pyridine-2-thione] (Biolog plate: PM14, well positions: C5-8)	4.06

====

tested on: Serratia marcescens K904 PosmB-luxCDABE reporter (pMQ747); assay: PosmB-lux reporter fold induction (RLU/OD600 relative to no-compound control), highest over Biolog concentrations; higher = stronger Rcs reporter activation; details: wild type K904; 4 h
Assign MET to entries whose PosmB-lux reporter fold induction meets or exceeds 2; assign NOT MET to the rest.

compound	system	class-label
CC1COc2c(N3CCN(C)CC3)c(F)cc3c(=O)c(C(=O)O)cn1c23 (centres undefined) [Ofloxacin] (Biolog plate: PM11, well positions: H9-12)	Serratia marcescens K904 PosmB-luxCDABE reporter (pMQ747)	NOT MET
OC(CCN1CCCCC1)(c1ccccc1)c1ccccc1 [pridinol] (Biolog plate: PM20, well positions: F9-12)	Serratia marcescens K904 PosmB-luxCDABE reporter (pMQ747)	MET
NCC(=O)O [Glycine] (Biolog plate: PM13, well positions: F5-8)	Serratia marcescens K904 PosmB-luxCDABE reporter (pMQ747)	NOT MET
CCn1cc(C(=O)O)c(=O)c2ccc(C)nc21 [Nalidixic Acid] (Biolog plate: PM11, well positions: E9-12)	Serratia marcescens K904 PosmB-luxCDABE reporter (pMQ747)	MET
O=C(N[C@H](CO)[C@H](O)c1ccc([N+](=O)[O-])cc1)C(Cl)Cl [Chloramphenicol] (Biolog plate: PM11, well positions: F1-4)	Serratia marcescens K904 PosmB-luxCDABE reporter (pMQ747)	NOT MET
CC1(C)S[C@@H]2[C@H](NC(=O)Cc3ccccc3)C(=O)N2[C@H]1C(=O)O [Penicillin G] (Biolog plate: PM12, well positions: A2-4)	Serratia marcescens K904 PosmB-luxCDABE reporter (pMQ747)	NOT MET
CC(C)NCC(O)COc1cccc2ccccc12 (racemic) [D,L-propranolol] (Biolog plate: PM20, well positions: B5-8)	Serratia marcescens K904 PosmB-luxCDABE reporter (pMQ747)	MET
O=C(O)CN(CCOCCOCCN(CC(=O)O)CC(=O)O)CC(=O)O (Biolog plate: PM14, well positions: H1-4)	Serratia marcescens K904 PosmB-luxCDABE reporter (pMQ747)	MET
N.N.N.N.N.N.[Cl-].[Cl-].[Cl-].[Co+3] [hexammine cobalt (III) chloride] (Biolog plate: PM19, well positions: H1-4)	Serratia marcescens K904 PosmB-luxCDABE reporter (pMQ747)	NOT MET
[Na+].[O]=[V](=[O])[O-] [Sodium metavanadate] (Biolog plate: PM14, well positions: F9-12)	Serratia marcescens K904 PosmB-luxCDABE reporter (pMQ747)	MET
Cc1cc(N)c2ccccc2[n+]1CCCCCCCCCC[n+]1c(C)cc(N)c2ccccc21 [Dequalinium chloride] (Biolog plate: PM13, well positions: A5-8)	Serratia marcescens K904 PosmB-luxCDABE reporter (pMQ747)	NOT MET
O=C([O-])c1ccccc1O.[Na+] [sodium salicylate (NSAID)] (Biolog plate: PM17, well positions: B1-4)	Serratia marcescens K904 PosmB-luxCDABE reporter (pMQ747)	MET
Oc1c(Cl)cc(Cl)c(Cl)c1Cc1c(O)c(Cl)cc(Cl)c1Cl [hexa-chlorophene] (Biolog plate: PM20, well positions: E9-12)	Serratia marcescens K904 PosmB-luxCDABE reporter (pMQ747)	NOT MET
O=c1[nH]c(=O)n([C@H]2C[C@H](O)[C@@H](CO)O2)cc1C(F)(F)F [trifluorothymidine] (Biolog plate: PM18, well positions: B1-4)	Serratia marcescens K904 PosmB-luxCDABE reporter (pMQ747)	NOT MET
NC(=O)N/N=C/c1ccc([N+](=O)[O-])o1 [5-Nitro-2-furaldehyde semicarbazone] (Biolog plate: PM15, well positions: E5-8)	Serratia marcescens K904 PosmB-luxCDABE reporter (pMQ747)	NOT MET
Cc1nnc(SCC2=C(C(=O)O)N3C(=O)[C@@H](NC(=O)Cn4cnnn4)[C@H]3SC2)s1 [Cefazolin] (Biolog plate: PM11, well positions: E1-4)	Serratia marcescens K904 PosmB-luxCDABE reporter (pMQ747)	NOT MET
O=C(O)c1cn(C2CC2)c2cc(N3CCNCC3)c(F)cc2c1=O [ciprofloxacin] (Biolog plate: PM20, well positions: D5-8)	Serratia marcescens K904 PosmB-luxCDABE reporter (pMQ747)	NOT MET
Nc1ccc(S(N)(=O)=O)cc1 [sulfanilamide] (Biolog plate: PM16, well positions: B5-8)	Serratia marcescens K904 PosmB-luxCDABE reporter (pMQ747)	NOT MET
CO[C@@]1(NC(=O)C(C(=O)O)c2ccc(O)cc2)C(=O)N2C(C(=O)O)=C(CSc3nnnn3C)CO[C@@H]21 (some centres undefined) [Moxalactam] (Biolog plate: PM13, well positions: H5-8)	Serratia marcescens K904 PosmB-luxCDABE reporter (pMQ747)	NOT MET
[Cl-].[Li+] [lithium chloride] (Biolog plate: PM17, well positions: F1-4)	Serratia marcescens K904 PosmB-luxCDABE reporter (pMQ747)	NOT MET
CN[C@@H]1[C@H](O[C@H]2[C@H](O[C@H]3[C@H](O)[C@@H](O)[C@H](N=C(N)N)[C@@H](O)[C@@H]3N=C(N)N)O[C@@H](C)[C@]2(O)C=O)O[C@@H](CO)[C@H](O)[C@H]1O [streptomycin] (Biolog plate: PM16, well positions: E1-4)	Serratia marcescens K904 PosmB-luxCDABE reporter (pMQ747)	NOT MET
CCCCCCCC[N+](C)(CCCCCCCC)CCCCCCCC [methyltrioctyl-ammonium chloride] (Biolog plate: PM19, well positions: B1-4)	Serratia marcescens K904 PosmB-luxCDABE reporter (pMQ747)	NOT MET
CCCCC(CC)CNC(=N)NC(=N)NCCCCCCNC(=N)NC(=N)NCC(CC)CCCC (centres undefined) [Alexidine] (Biolog plate: PM15, well positions: E1-4)	Serratia marcescens K904 PosmB-luxCDABE reporter (pMQ747)	MET
Cc1ccccc1C(OCCN(C)C)c1ccccc1 (centres undefined) [orphenadrine] (Biolog plate: PM20, well positions: B1-4)	Serratia marcescens K904 PosmB-luxCDABE reporter (pMQ747)	MET
